Just for reference, ChEMBL document CHEMBL1145774 is where these values come from.

Recorded inhibition for the following compounds
molecular target: Adenosine receptor A3 (Homo sapiens) (UniProt P0DMS8); assay: Ability to displace the binding of [3H]-MRE 3008-F20 to the ligand binding site of CHO:hA3 (human Adenosine receptor) at concentration of 10 uM
Sequence (P0DMS8 whole entry): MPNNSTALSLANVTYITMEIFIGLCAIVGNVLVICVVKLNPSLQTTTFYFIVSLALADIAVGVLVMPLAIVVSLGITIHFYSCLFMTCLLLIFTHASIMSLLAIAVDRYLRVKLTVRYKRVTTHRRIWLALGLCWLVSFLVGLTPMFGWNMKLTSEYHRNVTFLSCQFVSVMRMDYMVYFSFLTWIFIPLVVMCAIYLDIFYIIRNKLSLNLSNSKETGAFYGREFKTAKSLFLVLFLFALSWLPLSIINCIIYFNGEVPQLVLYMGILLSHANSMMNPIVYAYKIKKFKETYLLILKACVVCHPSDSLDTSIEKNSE
Numeric only. Scale: %

Would you please look over these solved cases?
Nc1sc2ccccc2c1C(=O)c1cccc2ccccc12; 19
Nc1sc2c(c1C(=O)c1ccc(Br)c3ccccc13)CCC2; 22
Cc1sc(N)c(C(=O)c2cccc3ccccc23)c1C; 18

Query: # lookup: inhibition of COc1ccc(C(=O)c2c(N)sc3c2CCC3)c2ccccc12
Result: 57

Query: # lookup: inhibition of Nc1sc2c(c1C(=O)c1ccc(Br)c3ccccc13)CCCC2
Result: 48.5

Query: # lookup: inhibition of Cc1sc(N)c(C(=O)c2cc(C)c3cc(Cl)ccc3c2)c1C
Result: -0

Query: # lookup: inhibition of Nc1sc2c(c1C(=O)c1ccc3ccccc3c1)CCC2
Result: 54

Query: # lookup: inhibition of Nc1sc2c(c1C(=O)c1ccc(I)c3ccccc13)CCC2
Result: -0

Query: # lookup: inhibition of Nc1sc2c(c1C(=O)c1cccc3ccccc13)CCCC2
Result: 34.5

Query: # lookup: inhibition of Nc1sc2c(c1C(=O)c1cccc3ccccc13)CCC2
Result: -0

====

biological target: Adenosine receptor A1 (Homo sapiens) (UniProt P30542); experiment: Percent change in cAMP content of CHO (Chinese hamster ovary) cells expressing human Adenosine A1 receptor at 1 uM; type: functional, cell-based
Sequence (P30542 whole entry): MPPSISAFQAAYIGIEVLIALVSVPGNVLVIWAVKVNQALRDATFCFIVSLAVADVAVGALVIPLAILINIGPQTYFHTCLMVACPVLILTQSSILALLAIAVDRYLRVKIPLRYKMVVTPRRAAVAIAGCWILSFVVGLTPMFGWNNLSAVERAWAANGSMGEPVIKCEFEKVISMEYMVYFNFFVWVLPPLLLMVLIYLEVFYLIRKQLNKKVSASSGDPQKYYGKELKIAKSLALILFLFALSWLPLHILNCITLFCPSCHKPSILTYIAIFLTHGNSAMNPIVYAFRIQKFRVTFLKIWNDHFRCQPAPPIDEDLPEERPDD
Recorded Change for the following compounds
Numeric only. Scale: %

Cc1cc(C(=O)c2c(N)sc3c2CCCC3)cc2ccccc12; -8

Query: # lookup: Change of Nc1sc2c(c1C(=O)c1ccc3c(c1)Cc1ccccc1-3)CCN(Cc1ccccc1)C2
Result: 8

Query: # lookup: Change of Nc1sc2c(c1C(=O)c1cccc3ccccc13)CCCC2
Result: -22

Query: # lookup: Change of Nc1sc2c(c1C(=O)c1cccc3ccccc13)CCC2
Result: -29

Query: # lookup: Change of Nc1sc2ccccc2c1C(=O)c1cccc2ccccc12
Result: 1

Query: # lookup: Change of Nc1sc2c(c1C(=O)c1cccc3ccccc13)CCN(Cc1ccccc1)C2
Result: -25

Query: # lookup: Change of Nc1sc2c(c1C(=O)c1ccc(Cl)c3ccccc13)CCCC2
Result: -25

Query: # lookup: Change of Nc1sc2c(c1C(=O)c1ccc(Br)c3ccccc13)CCC2
Result: -14

Query: # lookup: Change of Nc1sc2c(c1C(=O)c1ccc3c(c1)Cc1ccccc1-3)CCC2
Result: -6

Query: # lookup: Change of Nc1sc2c(c1C(=O)c1ccc3c(c1)Cc1ccccc1-3)CCCC2
Result: 7

====

target: UniProtKB P30542; experiment: Percent change in cAMP content of CHO (Chinese hamster ovary) cells expressing human Adenosine A1 receptor at 0.01 uM; assay type: functional, cell-based
endpoint: Change (%)
Numeric only. Scale: %

Would you please look over these solved cases?
Nc1sc2c(c1C(=O)c1ccc3ccccc3c1)CCC(Cc1ccccc1)C2 (configuration not stated); 7
Cc1cc(C(=O)c2c(N)sc3c2CCCC3)cc2ccccc12; -7

Query: # lookup: Change of Cc1sc(N)c(C(=O)c2ccc(C)c3ccccc23)c1C
Result: -5

Query: # lookup: Change of Nc1sc2c(c1C(=O)c1cccc3ccccc13)CCN(Cc1ccccc1)C2
Result: -21

Query: # lookup: Change of Cc1sc(N)c(C(=O)c2cccc(C(F)(F)F)c2)c1C
Result: -1
